List of Tm values.
Experiment: melting temperature; melt of duplexes
Settings: sodium 0.0675 M; strand 1 µM
Dear colleague, please return just the value in °C, with no unit written.

[[record]]
substance = "CGACGTGCGTAATGTGCTG+CAGCACATCCTGCACGTCG ((((((((...((((((((+))))))))...))))))))"
test_readout = "Tm"
measured = 49.7


-- ask Param item = CGACGTGCATTATGTGCTG+CAGCACATCGGGCACGTCG ((((((((...((((((((+))))))))...)))))))) ; retrieve measured Tm.
-- reply 47

-- ask Item: CGACGTGCTCAATGTGCTG+CAGCACATGACGCACGTCG ((((((((...((((((((+))))))))...))))))))
-- reply 48.7

-- ask Item: CGACGTGCTGCATGTGCTG+CAGCACATAACGCACGTCG ((((((((...((((((((+))))))))...))))))))
-- reply 49.4

---

Assay: melting temperature; melt of duplexes
Settings: sodium 0.0675 M; strand 1 µM
Please note: true applies when Tm is 50 °C or greater, and false applies otherwise.

Solved cases below.
[[record]]
substance = "CGACGTGCGGTATGTGCTG+CAGCACATTCCGCACGTCG ((((((((((.((((((((+)))))))).))))))))))"
cat = "true"

[[record]]
substance = "CGACGTGCTACATGTGCTG+CAGCACATCCCGCACGTCG ((((((((...((((((((+))))))))...))))))))"
cat = "false"

[[record]]
substance = "CGACGTGCTTTATGTGCTG+CAGCACATTAAGCACGTCG ((((((((((.((((((((+)))))))).))))))))))"
cat = "true"

[[record]]
substance = "CGACGTGCGTTATGTGCTG+CAGCACATCGTGCACGTCG ((((((((...((((((((+))))))))...))))))))"
cat = "false"

[[record]]
substance = "CGACGTGCACGATGTGCTG+CAGCACATGAGGCACGTCG ((((((((...((((((((+))))))))...))))))))"
cat = "false"


-- ask Tm >= 50 °C for CGACGTGCTGTATGTGCTG+CAGCACATATAGCACGTCG (((((((((.(((((((((+))))))))).))))))))) ?
-- reply true

-- ask Item: CGACGTGCGCAATGTGCTG+CAGCACATTATGCACGTCG ((((((((..(((((((((+)))))))))..))))))))
-- reply true

-- ask Item: CGACGTGCTCCATGTGCTG+CAGCACATTATGCACGTCG ((((((((...((((((((+))))))))...))))))))
-- reply false

-- ask Item: CGACGTGCGCTATGTGCTG+CAGCACATAGAGCACGTCG ((((((((.((((((((((+)))))))))).))))))))
-- reply true

-- ask Item: CGACGTGCTGTATGTGCTG+CAGCACATGCAGCACGTCG ((((((((((.((((((((+)))))))).))))))))))
-- reply true

-- ask Item: CGACGTGCGGGATGTGCTG+CAGCACATACGGCACGTCG ((((((((.(.((((((((+)))))))).).))))))))
-- reply true

-- ask Item: CGACGTGCCCAATGTGCTG+CAGCACATTGTGCACGTCG ((((((((.((((((((((+)))))))))).))))))))
-- reply true
